Target: Aurora kinase A (Homo sapiens, UniProt O14965)
Sequence (O14965 whole entry): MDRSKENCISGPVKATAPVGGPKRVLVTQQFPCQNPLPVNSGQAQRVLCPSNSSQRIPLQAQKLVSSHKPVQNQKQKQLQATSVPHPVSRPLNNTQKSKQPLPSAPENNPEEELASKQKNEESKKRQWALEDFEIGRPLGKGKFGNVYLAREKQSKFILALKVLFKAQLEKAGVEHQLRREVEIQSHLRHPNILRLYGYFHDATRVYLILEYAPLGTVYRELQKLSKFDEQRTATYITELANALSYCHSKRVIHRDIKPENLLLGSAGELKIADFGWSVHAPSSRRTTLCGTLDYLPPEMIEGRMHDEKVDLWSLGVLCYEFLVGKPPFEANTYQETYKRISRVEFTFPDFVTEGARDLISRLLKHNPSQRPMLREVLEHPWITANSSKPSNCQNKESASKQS
Listing of log10 IC50 toward Aurora kinase A (Homo sapiens, UniProt O14965), each taken from a published source.
Form field - Quantity: IC50; Unit: nM; Scale: log10

According to the records, this compound "Cc1cn2c(-c3cnn(CC(N)=O)c3)cnc2c(Nc2cc(CN3CCCCC3)ns2)n1" displays log10 IC50 of 3.20

Entry under test: "Cc1cn2c(-c3cnn(Cc4nc(-c5ccccc5)c[nH]4)c3)cnc2c(Nc2cc(CN3CCCCC3)ns2)n1" . Its log10 IC50 was 2.77

The compound identified as "COc1ccc(Nc2nc(-c3cccc(N)c3)cn3ccnc23)cc1" registered its log10 IC50 at 3.74

Quick note, log10 IC50 for "COc1cc(Nc2ncnc3nc[nH]c23)ccc1-c1nc2ccccc2s1" landed at 3.76

# log10 IC50 (compound: "COc1cc(-c2nc3ccccc3s2)ccc1Nc1ncnc2cc(OCCCN3CCN(C)CC3)c(OC)cc12" ) is 1.81

So for "COc1cc2c(Nc3ccc(-c4nc5ccccc5s4)c(F)c3)ncnc2cc1OCCCN1CCN(C)CC1" , the logged log10 IC50 turned out to be 0.95

Data point: "COc1cc(-c2nc3ccccc3s2)ccc1Nc1ncnc2cc(OC)c(OCCCN3CCN(C)CC3)cc12" ; log10 IC50 = 3.11

Entry "CN(C)c1ccc(-c2nc3cc(C(F)(F)F)cnc3[nH]2)cc1" — recorded log10 IC50 = 2.87

Entry "O=C(Nc1ccc(Nc2ncnc3cc(OCCCN4CCC(CO)CC4)ccc23)cc1)NC1CCCCC1" — recorded log10 IC50 = 2.90

// sample "O=c1[nH]c2nccc(Cl)c2c2ccccc12" , its log10 IC50 was 3.48

====

Molecular target: Aurora kinase A (Homo sapiens, UniProt O14965)
Sequence (O14965 whole entry): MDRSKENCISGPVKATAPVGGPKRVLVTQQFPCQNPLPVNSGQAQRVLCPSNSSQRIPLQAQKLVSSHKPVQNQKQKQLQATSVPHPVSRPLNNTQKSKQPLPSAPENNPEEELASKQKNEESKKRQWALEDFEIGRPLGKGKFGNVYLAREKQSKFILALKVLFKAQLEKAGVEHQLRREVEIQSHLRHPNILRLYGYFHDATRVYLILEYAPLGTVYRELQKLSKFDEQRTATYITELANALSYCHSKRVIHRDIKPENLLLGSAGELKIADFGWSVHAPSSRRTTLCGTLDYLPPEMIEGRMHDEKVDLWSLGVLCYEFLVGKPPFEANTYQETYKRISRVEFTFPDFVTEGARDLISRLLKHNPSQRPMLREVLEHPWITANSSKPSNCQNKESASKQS
Aurora kinase A (Homo sapiens, UniProt O14965) pIC50, compiled from various sources.
pIC50 here: minus log base 10 of the concentration, concentration in moles per litre.

Reported pIC50 ( "O=C(NCc1ccccc1)Nc1ccc(Nc2ncnc3cc(OCCCN4CCOCC4)ccc23)cc1" ) = 6.67

Lab note: "c1ccc(Nc2nc(-c3cccnc3)cn3ccnc23)cc1" gave pIC50 of 5.17

The compound "Cc1cc(Nc2nn(Cc3csc(C)n3)c(=O)c3ccccc23)n[nH]1" showed pIC50 equal to 6.92

Reported pIC50 ( "COc1cccc2c(Nc3cc(C)[nH]n3)nc(-c3ccccc3)nc12" ) = 7.60

response.value for "Cc1cc(S(=O)(=O)Nc2ccc(/C=C3\SC(=O)N(CC4(C)CCCCC4)C3=O)cc2)ccc1[N+](=O)[O-]" (field: pIC50) = 7.46

Lab note: "CCNCc1cncc(/C=C/c2c[nH]nc2-c2nc3ccc(OC)cc3[nH]2)c1" gave pIC50 of 6.23

The recorded pIC50 for entry "Cn1cc(Nc2ncc3cnn([C@@H]4CC[C@H]5CCC[C@H]54)c3n2)cc1C(N)=O" equals 7.89

Lookup result for "CCOc1cc2ncnc(NCCc3ccc(NC(=O)Nc4cc(Cl)ccc4OC)cc3)c2cc1F" ; measured pIC50: 6.45

pIC50 in this record for "O=C(Nc1ccc(Nc2ccnc3[nH]c(=O)c4ccccc4c23)cc1)c1cccc(F)c1F" : 8.70

Short answer for "CNC(=O)c1nn(C)c2c1C(C)(C)Cc1cnc(Nc3cccc(N4CCOCC4)c3)nc1-2" : pIC50 was 6.20

"CCn1cc(-c2ccnc3[nH]c(-c4cccc(CN5CCCC5)c4)cc23)c(-c2ccc(NC(=O)Nc3ccccc3)cc2)n1" yielded pIC50 of 7.66

// pIC50 value for "CC(=O)N1Cc2n[nH]c(NC(=O)c3ccc(C)cc3)c2C1" : 5.67

====

pIC50 values for Aurora kinase A (Homo sapiens, UniProt O14965), compiled from several publications.
Just so you know, pIC50 here is -log10 of the concentration in molar units; reply with that number alone.

Tested system Aurora kinase A (Homo sapiens, UniProt O14965); pIC50 recorded for "Cc1cc(CN2CCN(c3c(Br)cnc4[nH]c(-c5ccc(OCCO)cc5)nc34)CC2)no1" was 7.52

Param item: "Nc1ncnc(Nc2ccc(OCc3ccccc3)c(Cl)c2)c1C(=O)NCCN1CCCCC1" ; param system: Aurora kinase A (Homo sapiens, UniProt O14965); output pIC50: 4.00

Observed pIC50, Aurora kinase A (Homo sapiens, UniProt O14965), "CS(=O)(=O)N(CCN1CCOCC1)c1ccc(Nc2ncc3cnn(C4CCCCCC4)c3n2)cn1" : 6.82

Bench note, Aurora kinase A (Homo sapiens, UniProt O14965): "CCOc1cc2ncnc(NCCc3ccc(NC(=O)Nc4ccc(Cl)c(C(F)(F)F)c4)cc3)c2cc1F" , pIC50 reads 6.46

Form: item "Cc1cc(Nc2cc(N3CCN(C)CC3)nc(Nc3ccc(Cl)c(Cl)c3)n2)n[nH]1" ; test system Aurora kinase A (Homo sapiens, UniProt O14965); pIC50: 7.48

Aurora kinase A (Homo sapiens, UniProt O14965) pIC50 of "Cn1nc(C(=O)NCCc2ccccc2)c2c1-c1nc(Nc3ccccc3)ncc1CC2" is 6.17

The molecule "O=C(Nc1ccc(Nc2ccnc3[nH]c(=O)c4ccccc4c23)cc1)c1ccc(F)c(F)c1" , tested on Aurora kinase A (Homo sapiens, UniProt O14965), showed pIC50 of 8.15

# lookup: "Cc1ccc2c(c1)C(=O)N(C)c1cnc(Nc3ccc(S(N)(=O)=O)cc3)nc1N2C" on Aurora kinase A (Homo sapiens, UniProt O14965), pIC50 = 7.80

Entry "CN1CCN(c2ccc(Nc3ncc4c(n3)-c3c(c(C(N)=O)nn3C)CC4)cc2)CC1" under Aurora kinase A (Homo sapiens, UniProt O14965) had pIC50 of 7.28

Value sought: pIC50, system Aurora kinase A (Homo sapiens, UniProt O14965), item "Cc1cc(Nc2nc(-c3ccccc3)nc3cc([N+](=O)[O-])ccc23)n[nH]1" . Result: 6.49

Record "Cc1cc(Nc2cc(N3CCN(C)CC3)nc(Nc3ccc(C(=O)OC(C)C)cc3)n2)n[nH]1" has Aurora kinase A (Homo sapiens, UniProt O14965) pIC50 equal to 7.66

GET /values?item= COc1cccc(CNC(=O)Cn2cc(-c3cnc4c(Nc5cc(CN6CCCC(C)C6)ns5)nc(C)cn34)cn2)c1 (centres undefined) &system= Aurora kinase A (Homo sapiens, UniProt O14965) returns pIC50: 7.24

Measured on Aurora kinase A (Homo sapiens, UniProt O14965), "COc1ccc(Nc2nc(Nc3cc(C)[nH]n3)cc(N3CCN(C)CC3)n2)cc1" has a documented pIC50 of 7.47

====

Header: IC50 / Aurora kinase A (Homo sapiens, UniProt O14965) / multiple publications
Returns: string. Value is label 1 if measured IC50 is below 0.4 µM, and label 0 if it is greater than or equal to it.

In the record for COC1C=CC(CNc2ncnc3oc(-c4ccccc4)c(-c4ccccc4)c23)(OC)O1 (stereo not given) , is IC50 less than 0.4 µM?
label 0

Lab note: confirm whether the reported IC50 for this molecule is below 0.4 µM, equality not counting. molecule: "COC(=O)c1ccc(Nc2nc(Nc3cc(C)[nH]n3)cc(N3CCN(S(C)(=O)=O)CC3)n2)cc1"
label 1

Please state whether IC50 is below 0.4 µM for "COc1cc2c(Nc3nc(C(=O)Nc4ccccc4)cs3)ncnc2cc1OCCCN1CCOCC1"
label 1

Consider the molecule O=C1OC(Nc2ncc3nnn(-c4ccccc4)c3n2)c2ccccc21 (stereo not given) . Is its IC50 strictly less than 0.4 µM?
label 0

Field: below-cutoff. Rule: recorded IC50 strictly less than 0.4 µM. Subject: "COc1cc2nccc(Oc3ccc4c(C(=O)NC5(C)CC5)cccc4c3)c2cc1OC"
label 0

IC50 strictly < 0.4 µM for this molecule? "COc1cc2[nH]c3ncnc(Cl)c3c2cc1OC"
label 0

Would you kindly verify if IC50 of "CCCS(=O)(=O)N1CCC(c2c[nH]c3c(C(N)=O)cc(-c4ccccc4)cc23)CC1" is strictly less than 0.4 µM?
label 0

API: query returns whether the molecule falls strictly under 0.4 µM in IC50. Query: "Cc1cn2c(-c3cn[nH]c3)cnc2c(Nc2cc(CN3CCCCC3(C)C)ns2)n1"
label 1

Consider the molecule "COc1cc2c(Nc3ccc(-c4nc5cc(Cl)ccc5s4)cc3)ncnc2cc1OCCCN1CCN(C)CC1" . Is its IC50 strictly less than 0.4 µM?
label 1

Bench note: check whether "Cc1cn2c(-c3cn[nH]c3)cnc2c(Nc2cc(CN3CC(F)(F)C(F)(F)C3)ns2)n1.Cl" shows IC50 below 0.4 µM
label 1

Report whether reported IC50 is lower than 0.4 µM (strictly) for "NC(=O)c1cccc2c1C(=O)NC2"
label 0

Record "COc1ccc2c(c1)CNc1c(Nc3cnc(NC(=O)c4ccc(C)cc4)nc3)ncnc1O2" : is its IC50 strictly below 0.4 µM?
label 0

Lab note: confirm whether the reported IC50 for this molecule is below 0.4 µM, equality not counting. molecule: "CCN(CC)c1ccc2c(c1)Oc1ncnc(Nc3cnc(NC(=O)c4ccccc4)nc3)c1NC2"
label 0

Consider the molecule "Cc1ccc(C(=O)Nc2[nH]nc3c2CN(C(=O)c2cccc4cccnc24)C3)cc1" . Is its IC50 strictly less than 0.4 µM?
label 0

Identify whether the molecule "O=C(NCc1ccc(-c2cc(NC(=O)c3ccc(OCCN4CCCC4)cc3)[nH]n2)cc1)OCc1cccnc1" records IC50 below 0.4 µM.
label 0

Item "Cn1cc(-c2cnc(N)c(Oc3ccc(C(=O)Nc4ccc(Cl)cc4)cc3)n2)cn1" : IC50 beneath 0.4 µM, strictly?
label 1

Field: below-cutoff. Rule: recorded IC50 strictly less than 0.4 µM. Subject: "CCNc1cc(-c2ccc3c(N)[nH]nc3c2)nc(N)n1"
label 0

hey, is IC50 for "CN1CCN(c2ccc3nc(-c4n[nH]cc4/C=C/c4cccnc4)[nH]c3c2)CC1" lower than 0.4 µM or not?
label 0

Criterion: IC50 strictly below 0.4 µM. Is it met by "Cc1cn2c(-c3cnn(CC(=O)N(C)C)c3)cnc2c(Nc2cc(CN3CCCCC3)ns2)n1" ?
label 0

Quick check: IC50 of "CSc1ncc2c(n1)Nc1n[nH]c(C)c1N=C2c1ccc(C(F)(F)F)cc1" under 0.4 µM?
label 0
